target: human Cot catalytic domain (30-397 amino acids) (Homo sapiens, UniProt P41279); construct: Purified recombinant human Cot catalytic domain (30-397 amino acids) was purchased from Cama Biosciences; purchased Cama Biosciences (so in the source); experiment: High Throughput Cot Biochemical Assay (KinEASE TR-FRET); details: Cot biochemical HTRF (KinEASE TR-FRET) assay; read-out: IC50 HTRF
Sequence (P41279 30-397): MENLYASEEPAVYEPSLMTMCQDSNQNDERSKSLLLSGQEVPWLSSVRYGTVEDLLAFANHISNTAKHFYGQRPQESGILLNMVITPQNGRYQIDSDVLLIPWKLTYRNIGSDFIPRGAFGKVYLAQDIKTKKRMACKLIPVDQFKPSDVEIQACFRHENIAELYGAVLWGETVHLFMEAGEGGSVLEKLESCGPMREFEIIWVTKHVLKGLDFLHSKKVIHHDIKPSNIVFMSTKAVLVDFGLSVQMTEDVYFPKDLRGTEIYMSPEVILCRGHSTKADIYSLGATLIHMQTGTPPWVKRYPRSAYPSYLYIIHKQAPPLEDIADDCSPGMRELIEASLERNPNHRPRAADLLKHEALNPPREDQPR
value-type: IC50 (nM)
Give just the numeric value; nM need not be written.

CC[C@@H](Nc1c(C#N)cnc2c(Cl)cc(N(CC)[C@@H](c3ccccc3)c3c[nH]nn3)cc12)c1ccccc1 [Example 481] = 298

Task: Dear colleague, I am looking for the recorded IC50 of the following compound: CC(C)(C)N1CCC(n2cc([C@@H](Nc3cc(Cl)c4ncc(C#N)c(Nc5cnc(F)c(F)c5)c4c3)c3ccccc3)nn2)CC1 [Example 584]
Output: 10

Task: Given the entry CC(C)n1cc([C@@H](Nc2cc(Cl)c3ncc(C#N)c(Nc4cccc(Cl)c4F)c3c2)c2ccccc2)nn1 [Example 591] , report its measured IC50.
Output: 27

Task: May I ask what IC50 has been recorded for CC[C@@H](Nc1c(C#N)cnc2c(Cl)cc(N[C@@H](c3ccccc3)c3cn(C4CCN(C(C)(C)C)CC4)nn3)cc12)c1ccccc1 [Example 629] ?
Output: 3

Task: Item CNC(=O)c1cccc([C@H](Nc2cc(Cl)c3ncc(C#N)c(Nc4ccc(F)c(Cl)c4)c3c2)c2cn(C3CCN(C(C)(C)C)CC3)nn2)c1 [Example 690] has what recorded IC50?
Output: 2
